Cited source for all entries: ChEMBL document CHEMBL1130225

- ASSAY EXPLANATION: Half-life period after, intravenous injection of 1 mg/kg in dogs
- Assay type: ADME, organism-based, Canis lupus familiaris
- Set-up: dose 1 mg/kg, route intravenous
- PARTICULARS: dog, in vivo
ENDPOINT LABEL: half-life (h)

compound="NC1CCC(CNC(=O)[C@@H]2CCCN2C(=O)CC(c2ccccc2)c2ccccc2)CC1.O=C(O)C(F)(F)F (stereo partly specified)" endpoint_label=half-life u=h observed_measurement=2.92

====

Reported values of pKi for individual entries
- SYSTEM: Coagulation factor X (Homo sapiens)
- Sequence (P00742 41-179 limits assumed): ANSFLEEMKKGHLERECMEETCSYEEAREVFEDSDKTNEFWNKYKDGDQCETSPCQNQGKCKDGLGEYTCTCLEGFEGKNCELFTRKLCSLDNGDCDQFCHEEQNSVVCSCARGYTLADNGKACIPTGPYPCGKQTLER
- Sequence (P00742 235-488 limits assumed): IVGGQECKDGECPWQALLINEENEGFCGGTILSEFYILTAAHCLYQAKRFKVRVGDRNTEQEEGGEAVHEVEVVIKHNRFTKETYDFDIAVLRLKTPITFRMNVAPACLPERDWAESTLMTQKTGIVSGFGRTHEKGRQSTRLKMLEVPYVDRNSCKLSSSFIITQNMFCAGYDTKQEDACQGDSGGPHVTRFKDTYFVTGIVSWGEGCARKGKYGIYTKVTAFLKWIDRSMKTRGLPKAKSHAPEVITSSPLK
pKi: −log10 of the molar value.
ENDPOINT LABEL: pKi

compound="NC1CCC(CNC(=O)[C@@H]2CCCN2C(=O)CC(c2ccccc2)c2ccccc2)CC1.O=C(O)C(F)(F)F (some centres not stated)" system="Coagulation factor X (Homo sapiens)" value_qualifier== observed_measurement=3.01
compound="NC1CCC(CNC(=O)[C@@H]2CCCN2C(=O)CC(c2ccccc2)c2ccccn2)CC1 (single isomer, unassigned; diastereomer 1)" system="Coagulation factor X (Homo sapiens)" value_qualifier== observed_measurement=3.43
compound="NC1CCC(CNC(=O)[C@@H]2CCCN2C(=O)CC(c2ccccc2)c2ccncc2)CC1 (single isomer, unassigned; diastereomer 2)" system="Coagulation factor X (Homo sapiens)" value_qualifier== observed_measurement=3.40
compound="Cl.NC1CCC(CNC(=O)[C@@H]2CCCN2C(=O)CC2c3ccccc3C=Cc3ccccc32)CC1 (some centres not stated)" system="Coagulation factor X (Homo sapiens)" value_qualifier=< observed_measurement=3.00
compound="NC1CCC(CNC(=O)[C@@H]2CCCN2C(=O)CC(c2cccnc2)c2ccc3c(c2)OCO3)CC1.O=C(O)C(F)(F)F (single isomer, unassigned; diastereomer 2)" system="Coagulation factor X (Homo sapiens)" value_qualifier== observed_measurement=3.00
compound="NC1CCC(CNC(=O)[C@@H]2CCCN2C(=O)CC(c2ccccc2)c2cccnc2)CC1.O=C(O)C(F)(F)F (single isomer, unassigned; diastereomer 2)" system="Coagulation factor X (Homo sapiens)" value_qualifier=< observed_measurement=3.00
compound="Cl.NC1CCC(CNC(=O)[C@@H]2CCCN2C(=O)CC(C2CCCCC2)C2CCCCC2)CC1 (some centres not stated)" system="Coagulation factor X (Homo sapiens)" value_qualifier== observed_measurement=3.66

====

- ASSAY EXPLANATION: Partition coefficient (logP)
- Format: physicochemical
- PARTICULARS: octanol/water
ENDPOINT LABEL: logP

molecule="NC1CCC(CNC(=O)[C@@H]2CCCN2C(=O)CC(c2ccccc2)c2ccccc2)CC1.O=C(O)C(F)(F)F (stereo not given in full)" observed_measurement=0.37
molecule="NC1CCC(CNC(=O)[C@@H]2CCCN2C(=O)CC(c2cccnc2)c2ccc3c(c2)OCO3)CC1.O=C(O)C(F)(F)F (single isomer, unassigned; diastereomer 2)" observed_measurement=-1.62
molecule="Cl.NC1CCC(CNC(=O)[C@@H]2CCCN2C(=O)CC(C2CCCCC2)C2CCCCC2)CC1 (stereo not given in full)" observed_measurement=1.96
molecule="NC1CCC(CNC(=O)[C@@H]2CCCN2C(=O)CC(c2ccccc2)c2cccnc2)CC1.O=C(O)C(F)(F)F (single isomer, unassigned; diastereomer 2)" observed_measurement=-0.64
molecule="Cl.NC1CCC(CNC(=O)[C@@H]2CCCN2C(=O)CC2c3ccccc3C=Cc3ccccc32)CC1 (stereo not given in full)" observed_measurement=0.27

====

- ASSAY EXPLANATION: Clearance from dog plasma after intravenous injection of 1 mg/kg of compound
- Assay type: ADME, organism-based, Canis lupus familiaris
- Design: dose 1 mg/kg, route intravenous
ENDPOINT LABEL: clearance (mL/min/kg)

compound="NC1CCC(CNC(=O)[C@@H]2CCCN2C(=O)CC(c2ccccc2)c2ccccc2)CC1.O=C(O)C(F)(F)F (stereo partly specified)" endpoint_label=clearance u=mL/min/kg observed_measurement=10.2

====

- ASSAY EXPLANATION: Oral bioavailability in dog after peroral injection of 5 mg/kg of compound
- Format: ADME, organism-based, Canis lupus familiaris
- PARTICULARS: in vivo
ENDPOINT LABEL: bioavailability (%)

compound="NC1CCC(CNC(=O)[C@@H]2CCCN2C(=O)CC(c2ccccc2)c2ccccc2)CC1.O=C(O)C(F)(F)F (stereo partly specified)" endpoint_label=bioavailability observed_measurement=58

====

- ASSAY EXPLANATION: Half-life period after, peroral injection of 5 mg/kg in dogs
- Format: ADME, organism-based, Canis lupus familiaris
- Design: dose 5 mg/kg, route oral
- PARTICULARS: dog, in vivo, po
ENDPOINT LABEL: half-life (h)

molecule="NC1CCC(CNC(=O)[C@@H]2CCCN2C(=O)CC(c2ccccc2)c2ccccc2)CC1.O=C(O)C(F)(F)F (stereo partly specified)" u=h observed_measurement=2.6

====

- ASSAY EXPLANATION: Oral bioavailability in rat after peroral injection of 10 mg/kg of compound
- Type: ADME, organism-based
- PARTICULARS: in vivo
ENDPOINT LABEL: bioavailability (%)

molecule="NC1CCC(CNC(=O)[C@@H]2CCCN2C(=O)CC(c2ccccc2)c2ccccc2)CC1.O=C(O)C(F)(F)F (stereo partly specified)" u=% observed_measurement=10

====

- ASSAY EXPLANATION: Clearance from rat plasma after intravenous injection of 1 mg/kg of compound
- Assay type: ADME, organism-based
- Design: dose 1 mg/kg, route intravenous
ENDPOINT LABEL: clearance (mL/min/kg)

compound="NC1CCC(CNC(=O)[C@@H]2CCCN2C(=O)CC(c2ccccc2)c2ccccc2)CC1.O=C(O)C(F)(F)F (stereo partly specified)" observed_measurement=23.2
